Entries and their normalized growth
# measurementProtocol: chemical genetic growth profiling, strain panel (AID 1159580);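 note: tested at 20 µM; growth read once vehicle control cultures reached saturation at 30 °C; 1 = growth at the plate median or of vehicle wells; lower values mean less growth of the strain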
# conditionLabel: S. cerevisiae deletion strains, growth OD, locus YLR058C, strain SHM2, active compounds read low
About 2,000 (36%) of roughly 5,500 compounds were called active. Roughly 18% stayed inconclusive and do not appear here. Some of the results follow.
Reply: number alone, nothing else.

Some entries whose results are on file:
{"compound": "CNC(C)C(O)c1ccccc1 (stereo unspecified)", "normalized growth": 1}
{"compound": "COc1cccc2c(C)cc(=O)[nH]c12", "normalized growth": 0.94}
{"compound": "Cc1[nH]ccc2c1[nH]c1cc(=O)ccc12", "normalized growth": 1.01}

# input Bench note: what normalized growth did COc1ccc2c(c1)CCC1C2CC[C@@]2(C)C1CC[C@@H]2O (stereo partly specified) show?
# output 0.879

# input Also need C[C@]12CCC3c4ccc(O)cc4CCC3C1C[C@@H](O)[C@@H]2O (stereo partly specified) , thanks.
# output 0.977

# input Next entry: C[C@@H]([C@H](O)c1ccccc1)N(C)C
# output 1.01

###

# measurementProtocol: chemical genetic growth profiling, strain panel (AID 1159580);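 note: tested at 20 µM; growth read once vehicle control cultures reached saturation at 30 °C; 1 = growth at the plate median or of vehicle wells; lower values mean less growth of the strain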
# conditionLabel: S. cerevisiae deletion strains, growth OD, locus YNL248C, strain rpa49, active compounds read low
In all, about 5,500 compounds went through this assay and about 2,000 (36%) were called active. Not shown: some 18% with an inconclusive outcome. Some of the results follow.
Measured normalized growth of individual entries
API note: the answer field is a bare number with no unit suffix.

Worked examples follow.
{"compound": "CCC(c1ccc(O)cc1)C(CC)c1ccc(O)cc1 (stereo not drawn)", "observedValue": 0.942}
{"compound": "Cc1cc(OC(=O)c2c(C)cc(O)cc2O)cc(O)c1C(=O)O", "observedValue": 0.992}
{"compound": "CCOC(=O)c1c(C)cc(O)cc1O", "observedValue": 0.872}
{"compound": "C=CC1C2=CCOC(=O)C2=COC1OC1OC(CO)C(O)C(O)C1O (stereo not drawn)", "observedValue": 1.05}
{"compound": "CC/C(=C(/CC)c1ccc(O)cc1)c1ccc(O)cc1", "observedValue": 1.02}
{"compound": "O=C1C=C2C(=CCOC2O)O1 (stereo not drawn)", "observedValue": 0.701}
{"compound": "CCC(=O)c1c(O)cc(O)cc1O", "observedValue": 1}
{"compound": "O=C(O[C@@H]1Cc2c(O)cc(O)cc2O[C@@H]1c1cc(O)c(=O)c2c(O)c(O)cc([C@H]3Oc4cc(O)cc(O)c4C[C@H]3O)c2c1)c1cc(O)c(O)c(O)c1", "observedValue": 0.862}

# input What normalized growth value was documented for this compound, CC1(C)C2CC(=O)[C@]3(C)C(CC[C@@]4(C)[C@H](c5ccoc5)OC(=O)[C@H]5O[C@]543)[C@@]2(C)C(=O)C[C@H]1O (stereo partly drawn) ?
# output 1.02

# input Moving on to CC(C)c1c(O)c(-c2cc3c(c(C(C)C)c2O)CCC2C(C)(C)CCC[C@]32C)cc2c1CCC1C(C)(C)CCC[C@]21C (stereo partly drawn)
# output 0.953

# input Also need CC1(C)O[C@H]2CC(=O)OC[C@]23[C@H]2CC[C@@]4(C)[C@H](c5ccoc5)OC(=O)[C@H]5O[C@]54[C@]2(C)C(=O)C[C@@H]13 , thanks.
# output 0.979

# input Do the same for CC(=O)O[C@]1(C(C)=O)CCC2C3C=C(Cl)C4=CC(=O)[C@@H]5C[C@@H]5[C@]4(C)C3CC[C@@]21C (stereo partly drawn) please
# output 1.01

# input Consider next the compound COC(=O)c1c(C)cc(O)cc1O in the same way.
# output 1.01
